Sourced from patent US5837687A

# system.name: NKA receptor (Mesocricetus auratus)
# Construct: from tissue; host or cells: hamster respiratory tract (trachea) ring specimens
# Sequence (P51144 whole entry): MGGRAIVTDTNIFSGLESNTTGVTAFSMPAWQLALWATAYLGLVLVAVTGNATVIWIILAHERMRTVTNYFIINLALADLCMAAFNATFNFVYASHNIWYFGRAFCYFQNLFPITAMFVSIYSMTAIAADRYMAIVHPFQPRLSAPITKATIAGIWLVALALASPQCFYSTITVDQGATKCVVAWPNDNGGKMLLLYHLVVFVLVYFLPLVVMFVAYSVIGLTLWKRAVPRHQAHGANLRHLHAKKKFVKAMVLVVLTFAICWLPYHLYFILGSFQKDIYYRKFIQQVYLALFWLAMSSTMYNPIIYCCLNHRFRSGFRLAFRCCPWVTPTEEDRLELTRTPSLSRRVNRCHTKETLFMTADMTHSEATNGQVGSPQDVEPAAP
# assay: Activity to constriction of hamster respiratory tracts caused by NKA (isolated tissue, tension)
# Format: cell-based
attribute.measured: pIC50
Give bare numbers, as −log10 of the molar value.

Take a look at these entries with their results.
Cc1ccc(C)c(CN(NC(=O)[C@H](Cc2c[nH]c3ccccc23)NC(=O)[C@H](CCC(N)=O)NC(=O)NC(C)(C)C)C(=O)NCCOCc2ccccc2)c1 [Example 38 (3)]
9.17
CC(C)(C)NC(=O)N[C@@H](CCC(N)=O)C(=O)N[C@@H](Cc1c[nH]c2ccccc12)C(=O)NN(Cc1ccccc1)C(=O)NCCOC(c1ccccc1)c1ccccc1 [Example 44 (2)]
6.64
CC(C)(C)OC(=O)N[C@@H](CC(=O)OCc1ccccc1)C(=O)N[C@@H](CCC(N)=O)C(=O)N[C@@H](Cc1c[nH]c2ccccc12)C(=O)NN(Cc1ccccc1)C(N)=O [Example 1 (3), Boc-Asp(OBzl)-Gln-Trp-AzPhe-NH2]
7.35
Cc1ccccc1CN(NC(=O)[C@H](Cc1c[nH]c2ccccc12)NC(=O)[C@H](CCC(N)=O)NC(=O)NC(C)(C)C)C(=O)NCCOCc1ccccc1 [Example 33 (3)]
9.80

# value lookup — system NKA receptor (Mesocricetus auratus), readout pIC50, item CC(C)(C)OC(=O)N[C@@H](CC(=O)OCc1ccccc1)C(=O)N[C@@H](CCC(N)=O)C(=O)N[C@@H](Cc1c[nH]c2ccccc12)C(=O)NN(Cc1ccccc1)C(=O)N1CCOCC1 [Example 26 (3), Boc-Asp(OBzl)-Gln-Trp-AzPhe-M]
6.08
